Listed below: Promoting activity to GTPγS binding (EC50 nM) values for each entry.
# target.desc: Human GPR8 receptor protein (human, UniProt P48146 1-333)
# Sequence (P48146 whole entry): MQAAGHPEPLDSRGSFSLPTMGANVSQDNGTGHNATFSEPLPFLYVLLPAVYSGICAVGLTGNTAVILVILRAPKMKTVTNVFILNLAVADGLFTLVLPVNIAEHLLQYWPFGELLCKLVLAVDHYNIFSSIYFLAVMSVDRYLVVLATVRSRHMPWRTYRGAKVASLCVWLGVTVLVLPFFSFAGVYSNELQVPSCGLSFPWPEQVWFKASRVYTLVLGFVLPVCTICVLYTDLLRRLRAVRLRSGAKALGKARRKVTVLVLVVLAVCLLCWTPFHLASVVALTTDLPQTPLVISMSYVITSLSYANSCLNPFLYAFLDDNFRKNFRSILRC
# experiment.summary: cell-based or functional assay
No end group written: not given here. *: point of attachment. Propanoyl(3-indol-3-yl) = O=C(CCc1c[nH]c2ccccc12)*
The reply should be a number in nM, with the unit left off.

>  <binder>
{Propanoyl(3-indol-3-yl)}-YKHVASPRYHTVGRAAGLLMGL (also called IndPr-hGPR8L(2-23)) [[N-3-Indolepropanoyl-Tyr^2]-human GPR8 ligand (2-23)]

>  <meas.value>
5

$$$$
>  <binder>
RYHTVGRAAGLLMGL (also called hGPR8L(9-23)) [Human GPR8 ligand (9-23)]

>  <meas.value>
4200

$$$$

Identify Promoting activity to GTPγS binding (EC50 nM) associated with the binder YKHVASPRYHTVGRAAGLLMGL (also called hGPR8L(2-23)) [Human GPR8 ligand (2-23)]
3900
